TGT: GLUT2 (Homo sapiens)
Sequence (P11168 whole entry): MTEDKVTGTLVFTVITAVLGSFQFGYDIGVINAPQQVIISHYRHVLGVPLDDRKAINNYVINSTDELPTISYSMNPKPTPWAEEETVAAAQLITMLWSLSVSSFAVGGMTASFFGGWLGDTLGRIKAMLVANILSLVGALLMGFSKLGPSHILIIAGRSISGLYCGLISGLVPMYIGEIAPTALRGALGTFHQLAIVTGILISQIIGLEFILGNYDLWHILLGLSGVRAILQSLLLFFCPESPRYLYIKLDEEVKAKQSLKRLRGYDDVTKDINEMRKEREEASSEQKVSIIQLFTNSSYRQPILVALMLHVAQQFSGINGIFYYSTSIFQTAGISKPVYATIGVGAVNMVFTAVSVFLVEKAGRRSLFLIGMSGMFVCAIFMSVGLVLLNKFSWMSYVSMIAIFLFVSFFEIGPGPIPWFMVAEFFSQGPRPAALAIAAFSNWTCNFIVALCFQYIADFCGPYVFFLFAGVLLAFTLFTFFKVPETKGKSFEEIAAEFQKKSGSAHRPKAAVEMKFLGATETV
PROTOCOL: Glucose transport inhibitor cell screening assay, 25 mM D-glucose for 30 minutes
ASSAY_CONTEXT: Caco-2, read-out: % Glucose transport inhibiton 25 mM
TEST_READOUT: inhibition at 300 µM (%)
Numeric answer only, unit % assumed.

Could you share which inhibition at 300 µM value was measured for O=C(CCc1ccc(O)cc1)c1c(O)cc(O)cc1O[C@@H]1O[C@H](CO)[C@@H](O)[C@H](O)[C@H]1O [Phloridzin, reference compound] ?
14.3

Here is the next compound: Cc1c(O)c(C)c2c(c1O)C(=O)C(Cc1ccc(O)cc1)CO2 (stereo not shown)
67.4

Here is the next compound: COc1c(O)c(C)c(O)c2c1OCC(Cc1ccc(O)cc1)C2=O (stereo not shown)
63

Here is the next compound: Cc1c(O)cc2c(c1O)C(=O)C(Cc1ccc(O)cc1)CO2 (stereo not shown)
66.6

Here is the next compound: Cc1c(O)c(C)c2c(c1O)C(=O)[C@H](Cc1ccc3c(c1)OCO3)CO2
27.7

Here is the next compound: COc1c(O[C@@H]2O[C@H](CO)[C@@H](O)[C@H](O)[C@H]2O)cc2occ(-c3ccc(O)cc3)c(=O)c2c1O
4.92

Here is the next compound: COc1ccc(C[C@@H]2COc3c(C)c(O)c(C)c(O)c3C2=O)cc1
30.6

Values were extracted from patent US10806744B2.
